Tgt: Phosphatidylinositol 4,5-bisphosphate 3-kinase catalytic subunit delta isoform (Homo sapiens, UniProt O00329)
Sequence (O00329 whole entry, canonical isoform): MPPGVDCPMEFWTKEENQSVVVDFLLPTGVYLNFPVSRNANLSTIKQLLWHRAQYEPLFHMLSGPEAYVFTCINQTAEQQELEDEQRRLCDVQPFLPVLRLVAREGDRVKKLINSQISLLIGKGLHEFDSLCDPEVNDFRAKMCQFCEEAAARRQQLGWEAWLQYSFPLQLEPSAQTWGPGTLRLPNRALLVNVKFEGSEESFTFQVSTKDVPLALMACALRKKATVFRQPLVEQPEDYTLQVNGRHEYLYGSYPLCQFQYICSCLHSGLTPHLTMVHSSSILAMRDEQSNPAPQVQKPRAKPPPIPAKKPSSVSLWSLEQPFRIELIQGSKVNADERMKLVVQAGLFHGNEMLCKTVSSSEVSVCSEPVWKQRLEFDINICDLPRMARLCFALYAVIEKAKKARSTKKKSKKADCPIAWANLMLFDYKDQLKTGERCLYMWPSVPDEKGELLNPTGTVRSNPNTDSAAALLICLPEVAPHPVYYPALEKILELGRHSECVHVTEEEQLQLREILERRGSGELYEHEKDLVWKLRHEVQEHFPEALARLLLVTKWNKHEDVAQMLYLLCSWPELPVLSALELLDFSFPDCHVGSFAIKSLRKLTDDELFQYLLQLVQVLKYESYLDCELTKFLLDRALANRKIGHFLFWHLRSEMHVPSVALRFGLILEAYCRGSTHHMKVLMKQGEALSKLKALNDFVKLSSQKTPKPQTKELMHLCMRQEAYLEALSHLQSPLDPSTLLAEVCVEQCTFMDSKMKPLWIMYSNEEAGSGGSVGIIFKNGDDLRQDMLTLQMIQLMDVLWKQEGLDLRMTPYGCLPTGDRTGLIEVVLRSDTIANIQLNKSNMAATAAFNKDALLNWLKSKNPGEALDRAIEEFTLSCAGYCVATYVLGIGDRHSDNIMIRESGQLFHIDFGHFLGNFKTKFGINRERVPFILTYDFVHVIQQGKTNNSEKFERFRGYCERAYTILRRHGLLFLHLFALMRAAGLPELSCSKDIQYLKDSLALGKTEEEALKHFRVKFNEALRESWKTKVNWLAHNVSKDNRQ
Experimental details: Inhibition of PI3Kdelta (unknown origin) using PIP2 as substrate measured after 30 mins by HTRF assay
pIC50: −log10 of the molar value.
Measured property: pIC50

A. Cc1nc(N)nc(N2CCC[C@H]2c2nc3cccc(C#CCCCC(=O)N4CCOCC4)c3c(=O)n2-c2ccccc2)c1C#N
B. CC(C)(C)N1CCN(CC#Cc2cccc3nc([C@@H]4CCCN4c4ncnc(N)c4C#N)n(-c4ccccc4)c(=O)c23)CC1
Could you point out whether the larger pIC50 belongs to A or to B ? Answer with the label corresponding to your selection.
A
(A: 7.93, B: 7.37)

---

System: SU-DHL-6
Experimental details: Antiproliferative activity against human SUDHL6 cells measured after 72 hrs by alamar blue assay
Assay type: functional, cell-based
Conditions used: SU-DHL-6, 72 h
Measured property: IC50 (nM)

Quick check: IC50 of CC[C@H](Nc1nc(N)nc(N)c1C#N)c1nc2cccc(C#CCCCC(=O)N3CCOCC3)c2c(=O)n1-c1ccccc1 ?
7.6

Quick check: IC50 of N#Cc1c(N)ncnc1N1CCC[C@H]1c1nc2cccc(C#CC(=O)N3CCOCC3)c2c(=O)n1-c1ccccc1 ?
1120

P. CC(C)(F)CN1CCN(CC#Cc2cccc3nc([C@@H]4CCCN4c4ncnc(N)c4C#N)n(-c4ccccc4)c(=O)c23)CC1
Q. CC[C@H](Nc1ncnc(N)c1C#N)c1nc2cccc(C#CCCCC(=O)N3CCOCC3)c2c(=O)n1-c1ccccc1
Could you point out whether the larger IC50 belongs to P or to Q ? Answer with the label corresponding to your selection.
P
(P: 2820 nM, Q: 1430 nM)

---

Each entry below carries its reported pIC50.
Tested on: SUD4
Experimental details: Antiproliferative activity against human SU-DHL4 cells measured after 72 hrs by alamar blue assay
Type: functional, cell-based
Conditions used: SU-DHL-4, 72 h
pIC50 is a log-scale quantity: -log10 of the concentration expressed in molar.

Use the examples below as a reference point.
Quick check: pIC50 of Cc1nc(N)nc(N2CCC[C@H]2c2nc3cccc(C#CCCCC(=O)N4CCCC4)c3c(=O)n2-c2ccccc2)c1C#N ?
5.40

Quick check: pIC50 of N#Cc1c(N)ncnc1N1CCC[C@H]1c1nc2cccc(C#CCCCC(=O)N3CCOCC3)c2c(=O)n1-c1ccccc1 ?
5.41

Quick check: pIC50 of CC[C@H](Nc1nc(N)nc(N)c1C#N)c1nc2cccc(C#CCCCC(=O)N3CCCC3)c2c(=O)n1-c1ccccc1 ?
5.77

Here is another compound to look at.
Quick check: pIC50 of CC[C@H](Nc1nc(N)nc(N)c1C#N)c1nc2cccc(C#CCCCC(=O)N3CCOCC3)c2c(=O)n1-c1ccccc1 ?
5.80

---

Test system: Pfeiffer
Experimental details: Antiproliferative activity against human Pfeiffer cells measured after 72 hrs by alamar blue assay
Assay type: functional, cell-based
Measured property: IC50 (µM)
Number in µM, nothing else.

Use the examples below as a reference point.
Quick check: IC50 of Cc1nc(N)nc(N2CCC[C@H]2c2nc3cccc(C#CCCCC(=O)N4CCCC4)c3c(=O)n2-c2ccccc2)c1C#N ?
4.4

Quick check: IC50 of CC[C@H](Nc1nc(N)nc(N)c1C#N)c1nc2cccc(C#CCCCC(=O)N3CCCC3)c2c(=O)n1-c1ccccc1 ?
2.2

Quick check: IC50 of CC[C@H](Nc1ncnc2[nH]cnc12)c1nc2cccc(F)c2c(=O)n1-c1ccccc1 [IDELALISIB] ?
6.8

Quick check: IC50 of CC[C@H](Nc1nc(N)nc(N)c1C#N)c1nc2cccc(C#CCCCC(=O)N3CCOCC3)c2c(=O)n1-c1ccccc1 ?
1.4

Here is another compound to look at.
Quick check: IC50 of N#Cc1c(N)ncnc1N1CCC[C@H]1c1nc2cccc(C#CCCCC(=O)N3CCOCC3)c2c(=O)n1-c1ccccc1 ?
7.2
